experiment: inhibitors of hydroxyurea-induced Chk1 phosphorylation, primary screen, imaging, HeLa, phospho-Chk1 antibody, percent positive cells (AID 1186); settings: hydroxyurea-induced phospho-Chk1 immunofluorescence imaging, higher = more signal
So basically every entry gets a class from its z-score, ranges being bin A: < -0.2; bin B: ≥ -0.2 and < 0.2; bin C: ≥ 0.2

Molecule	Label value
C=CCNC(=O)[C@H]1[C@@H]2C(=O)O[C@@H](c3ccccc3)[C@@H](c3ccccc3)N2[C@@H](c2ccc(O)cc2)[C@]12C(=O)Nc1ccccc12	bin B
COCCOC(=O)N1C(=O)[C@@]2(c3cc(C#CCNC(N)=O)ccc31)[C@H](c1ccc(O)cc1)N1[C@H](c3ccccc3)[C@H](c3ccccc3)OC(=O)[C@H]1[C@@H]2C(=O)N1CCc2cc(OC)c(OC)cc2C1	bin B
[N-]=[N+]=NCc1ccccc1[C@H]1OC(c2ccc(OCCCO)cc2)=N[C@@]1(Cc1ccccc1N=[N+]=[N-])C(=O)N1CCOCC1	bin A
C=CCNC(=O)[C@H]1[C@@H]2C(=O)O[C@@H](c3ccccc3)[C@@H](c3ccccc3)N2[C@@H](c2ccc(O)cc2)[C@]12C(=O)N(C(=O)OCCOC)c1ccc(C#Cc3ccc(OC)cc3)cc12	bin B
C=CCN1C(=O)[C@@]2(O[C@@H](CCO)[C@H]([Si](C)(C)c3ccc(OC)cc3)[C@H]2C)c2cc(N3CCCCC3=O)ccc21	bin A
C=CCC(OC(C)=O)[C@@H]1[C@@H](N(Cc2ccc(-c3ccccc3)cc2)C(=O)Cc2ccc(OC)cc2)c2cc(OCCCO)ccc2N1C(=O)Cc1ccc(OC)cc1 (some centres undefined)	bin C
C=C(CCCC)/C(=C/C[C@@H](OC(C)=O)c1ccc(OCCO)cc1)c1cc(C(=O)OC)ccc1OC	bin C
COc1cc2c(cc1O)C(C)N(Cc1sc3ccccc3c1Cl)CC2 (centres undefined)	bin A
Cc1ccc(S[C@]2(C(=O)NC(C)C)CC(=O)N(Cc3ccccc3)[C@@H]2c2ccc(CO)cc2I)cc1	bin A
COc1c(C)cc(-c2nc(-c3ccccc3)c3c(c2C)CO[Si]3(C(C)C)C(C)C)cc1C	bin B
COC(=O)[C@@]1(Cc2ccc(F)cc2)[C@H]2c3cc(C(=O)N4CCCC4)n(C[C@H](O)CO)c3C[C@H]2CN1C(=O)c1ccccc1	bin C
O=C1c2ccccc2[C@@]2(Cc3ccccc3N(CC(F)(F)F)C2=O)[C@H](c2ccc(CO)cc2)N1Cc1ccccc1	bin B
